# measuredOn: human NaV1.8 (hNaV1.8) ion channel (Homo sapiens, UniProt Q9Y5Y9)
# Construct: expressed in transfected cells
# Sequence (Q9Y5Y9 whole entry): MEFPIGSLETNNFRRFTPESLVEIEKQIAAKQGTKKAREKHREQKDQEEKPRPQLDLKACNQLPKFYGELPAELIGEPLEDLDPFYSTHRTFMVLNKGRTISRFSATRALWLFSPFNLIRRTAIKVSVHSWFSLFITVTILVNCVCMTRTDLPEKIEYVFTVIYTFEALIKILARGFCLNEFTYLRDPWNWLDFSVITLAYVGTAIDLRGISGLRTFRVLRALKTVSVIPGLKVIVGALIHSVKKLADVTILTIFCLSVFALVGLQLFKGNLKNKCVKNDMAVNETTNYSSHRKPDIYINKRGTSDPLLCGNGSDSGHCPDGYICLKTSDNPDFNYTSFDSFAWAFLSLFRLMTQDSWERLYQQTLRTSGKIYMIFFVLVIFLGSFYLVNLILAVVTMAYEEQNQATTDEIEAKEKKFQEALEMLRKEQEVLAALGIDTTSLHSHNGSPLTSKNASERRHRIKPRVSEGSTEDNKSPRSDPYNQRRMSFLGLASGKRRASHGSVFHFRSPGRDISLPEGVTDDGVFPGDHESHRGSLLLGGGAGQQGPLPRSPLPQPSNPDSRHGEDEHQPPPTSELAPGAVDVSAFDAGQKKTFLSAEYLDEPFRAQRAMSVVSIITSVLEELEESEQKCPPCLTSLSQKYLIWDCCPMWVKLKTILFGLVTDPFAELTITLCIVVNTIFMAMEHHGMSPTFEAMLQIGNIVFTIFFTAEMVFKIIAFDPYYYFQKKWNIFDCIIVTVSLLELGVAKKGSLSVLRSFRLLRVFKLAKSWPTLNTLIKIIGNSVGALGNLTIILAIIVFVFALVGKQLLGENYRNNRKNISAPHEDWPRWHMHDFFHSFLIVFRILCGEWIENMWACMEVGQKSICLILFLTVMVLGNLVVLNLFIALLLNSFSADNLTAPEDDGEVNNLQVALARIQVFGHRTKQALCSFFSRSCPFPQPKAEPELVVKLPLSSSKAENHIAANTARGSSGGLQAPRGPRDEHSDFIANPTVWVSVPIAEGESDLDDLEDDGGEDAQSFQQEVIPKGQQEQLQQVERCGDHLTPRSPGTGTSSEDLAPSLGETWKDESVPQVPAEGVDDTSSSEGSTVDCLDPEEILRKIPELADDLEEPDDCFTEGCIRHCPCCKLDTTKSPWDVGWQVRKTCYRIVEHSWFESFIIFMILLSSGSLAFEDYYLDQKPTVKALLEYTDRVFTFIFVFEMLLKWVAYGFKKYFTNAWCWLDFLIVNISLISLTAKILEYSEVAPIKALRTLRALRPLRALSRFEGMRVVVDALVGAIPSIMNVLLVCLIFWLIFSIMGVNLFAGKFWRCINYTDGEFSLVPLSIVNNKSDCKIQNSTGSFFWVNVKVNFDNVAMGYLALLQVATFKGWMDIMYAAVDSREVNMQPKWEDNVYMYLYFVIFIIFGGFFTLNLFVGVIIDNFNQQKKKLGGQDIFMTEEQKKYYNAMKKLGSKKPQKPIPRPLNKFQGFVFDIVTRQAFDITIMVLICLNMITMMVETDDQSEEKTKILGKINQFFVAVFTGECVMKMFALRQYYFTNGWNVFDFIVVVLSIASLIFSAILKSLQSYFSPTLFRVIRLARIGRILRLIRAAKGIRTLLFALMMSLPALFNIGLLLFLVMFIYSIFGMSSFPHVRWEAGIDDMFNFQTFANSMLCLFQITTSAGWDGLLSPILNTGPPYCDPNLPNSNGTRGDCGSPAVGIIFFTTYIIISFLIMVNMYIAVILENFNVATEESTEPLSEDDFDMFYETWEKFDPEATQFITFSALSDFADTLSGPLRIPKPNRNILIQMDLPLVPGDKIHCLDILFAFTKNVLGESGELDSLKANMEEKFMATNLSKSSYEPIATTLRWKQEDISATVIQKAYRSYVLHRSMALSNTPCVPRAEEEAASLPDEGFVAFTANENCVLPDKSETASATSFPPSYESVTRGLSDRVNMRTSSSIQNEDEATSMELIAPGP
# experimentSummary: Inhibition of Human NaV1.8 stably expressed in SH-SY-5Y cells (membrane potential dye fluorescence assay)
# Format: cell-based
# particulars: SH-SY-5Y cells stably expressing hNaV1.8; FLIPR membrane potential dye; 10 μM pyrethroid, 250 nM TTX; test range 100 μM-0.05 μM; read-out: hNav1.8 IC50
# Procedure: Inhibition of Human NaV1.8 stably expressed in SH-SY-5Y cells A SH-SY-5Y neuroblastoma cell line stably expressing the human NaV1.8 (hNaV1.8) ion channel was constructed. […] Cell plates are incubated for 30 minutes at room temperature to allow equilibration of dye and test compound. Plates are then transferred to a fluorescence plate reader for fluorescence measurement using an excitation wavelength of 530 nm whilst measuring fluorescence emission at 565 nm. […]
Counter-ions that a name gives are not always drawn.
attributeMeasured: pIC50
Formally, pIC50 is defined as -log10 of the concentration c, with c in mol/L.

compound: CC(NC1CN(C(=O)Nc2cccc(C(F)(F)F)c2)C1)c1ccccc1Cl (centres unmarked)
pIC50: 5.54
//
compound: O=C(Nc1ccc(Oc2ccc(F)cc2)cc1)N1CC(NC2CCc3cc(F)ccc32)C1 (centres unmarked) [Example 136, methanesulfonate salt]
pIC50: 6.68
//
compound: O=C(Nc1ccc(Oc2ccc(F)cc2)c(F)c1)N1CC(NC2CCc3cc(F)ccc32)C1 (centres unmarked)
pIC50: 6.34
//
compound: CCCCOc1ccc(NC(=O)N2CC(N(C)C(C)c3ccccc3C)C2)cc1 (centres unmarked)
pIC50: 6.24

Quickly give me recorded pIC50 for O=C(Nc1ccc(C(F)(F)F)cc1)N1CC(NC2CCc3cc(F)ccc32)C1 (centres unmarked)
5.51

Read the entry CC(NC1CN(C(=O)Nc2ccc(Oc3ccccc3)cc2)C1)c1ccccc1Cl (centres unmarked) and write its reported pIC50.
6.20

Annotate the compound O=C(Nc1ccc(Oc2ccc(F)cc2)cc1)N1CC(NC2CCc3cc(O)ccc32)C1 (centres unmarked) with its measured pIC50.
5.87

Indicate its recorded pIC50; the compound in question is CC(NC1CN(C(=O)Nc2ccc(Oc3ccccc3)cc2)C1)c1ccc(F)cc1Cl (centres unmarked)
5.91

* * *

# measuredOn: human NaV1.8 (hNaV1.8) ion channel (Homo sapiens, UniProt Q9Y5Y9)
# Construct: expressed in transfected cells
# experimentSummary: Inhibition of Human NaV1.8 stably expressed in SH-SY-5Y cells (membrane potential dye fluorescence assay)
# Format: cell-based
# particulars: SH-SY-5Y cells stably expressing hNaV1.8; FLIPR membrane potential dye; 10 μM pyrethroid, 250 nM TTX; test range 100 μM-0.05 μM; read-out: hNav1.8 IC50
attributeMeasured: IC50
Respond with a number, then the unit of measure.

Answered cases to consult:
compound: CC(NC1CN(C(=O)c2ccc(Oc3ccccc3)cc2)C1)c1ccccc1 (centres unmarked)
IC50: 0.73 µM

compound: O=C(Cc1ccc(Oc2ccc(F)cc2)cc1)N1CC(NC2CCc3cc(F)ccc32)C1 (centres unmarked)
IC50: 0.69 µM

For human NaV1.8 (hNaV1.8) ion channel (Homo sapiens, UniProt Q9Y5Y9), give the measured IC50 of the entry O=C(Nc1ccc(C(F)(F)F)cc1)N1CC(NC2CCCc3ccccc32)C1 (centres unmarked)
2.77 µM

Please tell me the measured IC50 for CCCCOc1ccc(NC(=O)N2CC(N3CCc4cccc(OC)c4C3)C2)cc1 ; system: human NaV1.8 (hNaV1.8) ion channel (Homo sapiens, UniProt Q9Y5Y9).
1.41 µM

Give IC50 for this entry on human NaV1.8 (hNaV1.8) ion channel (Homo sapiens, UniProt Q9Y5Y9): O=C(Cc1ccc(Oc2ccc(F)cc2)cc1)N1CC(NC2Cc3ccccc3C2)C1
0.43 µM

* * *

# measuredOn: human NaV1.8 (hNaV1.8) ion channel (Homo sapiens)
# Construct: expressed in transfected cells
# experimentSummary: Inhibition of Human NaV1.8 stably expressed in SH-SY-5Y cells (membrane potential dye fluorescence assay)
# Assay type: cell-based
# particulars: SH-SY-5Y cells stably expressing hNaV1.8; FLIPR membrane potential dye; 10 μM pyrethroid, 250 nM TTX; test range 100 μM-0.05 μM; read-out: hNav1.8 IC50
Counter-ions that a name gives are not always drawn.
Reported pIC50 by item:
Please express pIC50 as -log10 of the molar concentration.

compound: Cc1ccccc1C(C)NC1CN(C(=O)Nc2ccc(C(F)(F)F)cc2)C1 (centres unmarked) [Example 104]
valueReported: 5.60
//
compound: O=C(Nc1ccc(Oc2ccc(F)cc2)cc1)N1CC(NC2CCc3cc(F)ccc3C2)C1 (centres unmarked) [Example 8]
valueReported: 6.51
//
compound: C=CCOc1ccccc1CNC1CN(C(=O)Nc2ccc(OCc3ccccc3)cc2)C1 [Example 51]
valueReported: 6.47
//
compound: O=C(Nc1ccc(Oc2ccc(F)cc2)nc1)N1CC(NC2CCc3cc(F)ccc32)C1 (centres unmarked) [Example 135, methanesulfonate salt]
valueReported: 5.66
//
compound: O=C(Nc1ccc(Oc2ccc(F)cc2)cc1)N1CC(NC2CCc3cc(Br)ccc32)C1 (centres unmarked) [Example 17]
valueReported: 6.27
//
compound: CC(c1ccc(F)cc1Cl)N(C)C1CN(C(=O)Nc2ccc(C(F)(F)F)cc2)C1 (centres unmarked) [Example 59]
valueReported: 5.73
//
compound: CC(NC1CN(C(=O)Nc2cccc(Oc3ccccc3)c2)C1)c1ccccc1Cl (centres unmarked) [Example 102]
valueReported: 6.10

Answer with the recorded pIC50 of CC(c1ccc(F)cc1)N(C)C1CN(C(=O)Nc2cc(C(F)(F)F)ccc2F)C1 (centres unmarked) [Example 81] only.
5.08

* * *

# measuredOn: human NaV1.8 (hNaV1.8) ion channel (Homo sapiens)
# Construct: expressed in transfected cells
# experimentSummary: Inhibition of Human NaV1.8 stably expressed in SH-SY-5Y cells (membrane potential dye fluorescence assay)
# Type: cell-based
# particulars: SH-SY-5Y cells stably expressing hNaV1.8; FLIPR membrane potential dye; 10 μM pyrethroid, 250 nM TTX; test range 100 μM-0.05 μM; read-out: hNav1.8 IC50
attributeMeasured: pIC50
Scale: negative log10 of molar concentration, which is what pIC50 denotes.

Example entries and their recorded answers appear below.
compound: CC(NC1CN(C(=O)Nc2ccc(OC(F)(F)F)cc2)C1)c1ccc(F)cc1 (centres unmarked)
attributeMeasured: pIC50
valueReported: 5.49
//
compound: O=C(Nc1ccc(Oc2ccc(F)cc2)c(F)c1)N1CC(NC2CCc3cc(Cl)ccc32)C1 (centres unmarked)
attributeMeasured: pIC50
valueReported: 6.19
//
compound: CCCCOc1ccc(NC(=O)N2CC(NC3CCc4cc(F)ccc43)C2)cc1 (centres unmarked)
attributeMeasured: pIC50
valueReported: 5.92

# return recorded pIC50 for input O=C(Nc1ccc(Oc2ccccc2)cc1)N1CC(NC2COc3ccccc32)C1 (centres unmarked)
5.77

Supply recorded pIC50 for O=C(Nc1cccc(Oc2ccccc2)c1)N1CC(NC2CCc3cc(F)ccc32)C1 (centres unmarked) here.
6.37

* * *

# measuredOn: human NaV1.8 (hNaV1.8) ion channel (Homo sapiens)
# Construct: expressed in transfected cells
# experimentSummary: Inhibition of Human NaV1.8 stably expressed in SH-SY-5Y cells (membrane potential dye fluorescence assay)
# Format: cell-based
# particulars: SH-SY-5Y cells stably expressing hNaV1.8; FLIPR membrane potential dye; 10 μM pyrethroid, 250 nM TTX; test range 100 μM-0.05 μM; read-out: hNav1.8 IC50
attributeMeasured: IC50 (µM)
// return numeric value only (unit: µM, not printed)

Answered cases to consult:
molecule: O=C(Cc1ccc(Oc2ccccc2)cc1)N1CC(NC2Cc3ccccc3C2)C1
IC50 (µM): 0.65
--
molecule: CC(NC1CN(C(=O)Nc2ccc(Oc3ccccc3)cc2)C1)c1ccccc1C(F)(F)F (centres unmarked)
IC50 (µM): 1.18

Give the measured IC50 for CCCCOc1cccc(NC(=O)N2CC(N(C)C(C)c3ccccc3C)C2)c1 (centres unmarked)
1.03

Provide IC50 value for the following molecule: NC(=O)C(NC1CN(C(=O)Nc2ccc(Oc3ccccc3)cc2)C1)c1ccccc1 (centres unmarked)
7.71

Please report IC50 for the following molecule: O=C(Nc1ccc(Oc2ccccc2F)cc1)N1CC(NC2CCc3cc(Cl)ccc32)C1 (centres unmarked)
1.55

Name the recorded IC50 of the molecule listed here: COc1ccc2c(c1)CCC2NC1CN(C(=O)Nc2ccc(Oc3cccc(F)c3)cc2)C1 (centres unmarked)
0.17

Read off the recorded IC50 for CC(c1ccc(F)cc1)N(C)C1CN(C(=O)Nc2ccc(F)c(C(F)(F)F)c2)C1 (centres unmarked)
3.93

Report IC50 for O=C(Nc1ccc(C(F)(F)F)cc1)N1CC(NC2CCc3ccccc3C2)C1 (centres unmarked)
0.45

* * *

# measuredOn: human NaV1.8 (hNaV1.8) ion channel (Homo sapiens)
# Construct: expressed in transfected cells
# experimentSummary: Inhibition of Human NaV1.8 stably expressed in SH-SY-5Y cells (membrane potential dye fluorescence assay)
# Format: cell-based
# particulars: SH-SY-5Y cells stably expressing hNaV1.8; FLIPR membrane potential dye; 10 μM pyrethroid, 250 nM TTX; test range 100 μM-0.05 μM; read-out: hNav1.8 IC50
The entries below come with measured IC50 values attached.
Give a bare numeral; the unit nM is implied.

Observe how each entry below is paired with its result.
compound: O=C(Nc1ccc(Oc2ccccc2F)cc1)N1CC(NC2CCc3cc(F)ccc32)C1 (centres unmarked)
measuredOn: human NaV1.8 (hNaV1.8) ion channel (Homo sapiens)
attributeMeasured: IC50
valueReported: 540
//
compound: O=C(c1ccc(Oc2ccc(F)cc2)cc1)N1CC(NC2CCc3cc(F)ccc32)C1 (centres unmarked)
measuredOn: human NaV1.8 (hNaV1.8) ion channel (Homo sapiens)
attributeMeasured: IC50
valueReported: 240
//
compound: CC(NC1CN(C(=O)Nc2ccc(C(F)(F)F)cc2)C1)c1ccccc1Cl (centres unmarked)
measuredOn: human NaV1.8 (hNaV1.8) ion channel (Homo sapiens)
attributeMeasured: IC50
valueReported: 2480
//
compound: CN(C1CN(C(=O)Nc2ccc(Oc3ccccc3)cc2)C1)C1CCc2cc(F)ccc21 (centres unmarked)
measuredOn: human NaV1.8 (hNaV1.8) ion channel (Homo sapiens)
attributeMeasured: IC50
valueReported: 560
//
compound: CCCCOc1ccc(NC(=O)N2CC(N(C)C(C)c3ccc(F)cc3)C2)cc1 (centres unmarked)
measuredOn: human NaV1.8 (hNaV1.8) ion channel (Homo sapiens)
attributeMeasured: IC50
valueReported: 3530
//
compound: O=C(Nc1ccc(Oc2ccccc2)cc1)N1CC(NC2CCc3ccccc3C2)C1 (centres unmarked)
measuredOn: human NaV1.8 (hNaV1.8) ion channel (Homo sapiens)
attributeMeasured: IC50
valueReported: 100
//
compound: O=C(Nc1ccc(Oc2ccccc2)cc1)N1CC(NCc2c(F)cccc2F)C1
measuredOn: human NaV1.8 (hNaV1.8) ion channel (Homo sapiens)
attributeMeasured: IC50
valueReported: 830
//
compound: CC(c1ccccc1Cl)N(C)C1CN(C(=O)Nc2ccc(Oc3ccccc3)cc2)C1 (centres unmarked)
measuredOn: human NaV1.8 (hNaV1.8) ion channel (Homo sapiens)
attributeMeasured: IC50
valueReported: 550
//
compound: CN(C1CN(C(=O)Nc2ccc(Oc3ccc(F)cc3)cc2)C1)C1CCc2cc(F)ccc21 (centres unmarked)
measuredOn: human NaV1.8 (hNaV1.8) ion channel (Homo sapiens)
attributeMeasured: IC50
valueReported: 420
//
compound: O=C(Nc1ccc(Oc2ccccc2)cc1)N1CC(NC2CCc3cc(F)ccc32)C1 (centres unmarked) [Example 27]
measuredOn: human NaV1.8 (hNaV1.8) ion channel (Homo sapiens)
attributeMeasured: IC50
valueReported: 270

Please list IC50 recorded for the compound CC(c1ccc(OC(F)(F)F)cc1)N(C)C1CN(C(=O)Nc2ccc(Oc3ccccc3)cc2)C1 (centres unmarked)
1220

Read off the recorded IC50 for CC(NC1CN(C(=O)Cc2ccc(Oc3ccccc3)cc2)C1)c1ccccc1 (centres unmarked)
1070

Give recorded IC50. COC(=O)C(NC1CN(C(=O)Nc2ccc(Oc3ccccc3)cc2)C1)c1ccccc1 (centres unmarked)
2230

Determine from records and report IC50 for CCCCOc1ccc(NC(=O)N2CC(NC(C)c3ccccc3Cl)C2)cc1 (centres unmarked)
770

Answer with the recorded IC50 of O=C(Nc1ccc(Oc2ccc(F)cc2)cc1)N1CC(NC2CCc3cc(F)ccc32)C1 (centres unmarked) [Example 7] only.
250

Name the recorded IC50 of the compound listed here: Cc1cc(F)ccc1C(C)NC1CN(C(=O)Nc2cccc(C(F)(F)F)c2)C1 (centres unmarked)
2840

Look up and state reported IC50 for CC(NC1CN(C(=O)Nc2cccc(Oc3ccccc3)c2)C1)c1ccc(F)cc1 (centres unmarked)
730

This collection of values is drawn from patent US20100105651A1.
